Target: UniProt P05067
Sequence (P05067 whole entry): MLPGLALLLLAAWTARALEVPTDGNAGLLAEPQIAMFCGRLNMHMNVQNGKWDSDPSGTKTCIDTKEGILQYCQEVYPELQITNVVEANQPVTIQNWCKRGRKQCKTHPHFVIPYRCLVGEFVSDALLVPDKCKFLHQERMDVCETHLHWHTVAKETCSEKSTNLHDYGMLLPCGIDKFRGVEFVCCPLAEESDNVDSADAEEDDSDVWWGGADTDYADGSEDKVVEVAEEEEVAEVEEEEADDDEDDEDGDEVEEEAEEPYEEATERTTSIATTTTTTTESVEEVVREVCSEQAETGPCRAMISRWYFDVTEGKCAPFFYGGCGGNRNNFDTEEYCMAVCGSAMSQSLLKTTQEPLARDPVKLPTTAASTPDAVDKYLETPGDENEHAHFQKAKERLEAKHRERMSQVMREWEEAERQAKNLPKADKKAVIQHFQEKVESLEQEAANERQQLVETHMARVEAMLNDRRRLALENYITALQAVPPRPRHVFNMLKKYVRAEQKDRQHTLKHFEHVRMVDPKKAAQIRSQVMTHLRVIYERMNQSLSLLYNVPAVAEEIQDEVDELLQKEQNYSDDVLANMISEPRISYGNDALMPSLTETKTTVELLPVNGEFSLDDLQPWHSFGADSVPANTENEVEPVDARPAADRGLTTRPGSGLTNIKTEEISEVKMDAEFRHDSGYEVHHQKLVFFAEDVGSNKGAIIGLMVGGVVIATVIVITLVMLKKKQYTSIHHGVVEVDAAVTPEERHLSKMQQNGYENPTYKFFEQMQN
Test: Inhibition of amyloid beta (1 to 42) (unknown origin)-induced cytotoxicity in human SH-SY5Y cells assessed as cell viability at 50 uM after 24 hrs by WST8 assay (reference value: 63.1 +/- 5.6%)
Assay type: cell-based
This section presents compounds with their documented Activity values.
quantityMeasured: Activity (%)

COC(=O)[C@H]1O[C@@H](O[C@H]2CC[C@]3(C)[C@H]4CC=C5[C@@H]6CC(C)(C)C[C@H](OC(C)=O)[C@]6(COC(C)=O)[C@@H](OC(C)=O)C[C@@]5(C)[C@]4(C)CC[C@H]3C2(C)C)[C@H](O[C@@H]2O[C@H](CO)[C@@H](O)[C@H](O)[C@H]2O[C@@H]2OC[C@@H](O)[C@H](O)[C@H]2O)[C@@H](O)[C@@H]1O ... 84.3
CC(=O)OC[C@]12[C@@H](OC(C)=O)CC(C)(C)C[C@H]1C1=CC[C@@H]3[C@@]4(C)CC[C@H](O[C@@H]5O[C@H](C(=O)O)[C@@H](O)[C@H](O[C@@H]6O[C@@H](C)[C@H](O)[C@@H](O)[C@H]6O)[C@H]5O[C@@H]5O[C@H](CO)[C@@H](O)[C@H](O)[C@H]5O)C(C)(C)[C@@H]4CC[C@@]3(C)[C@]1(C)C[C@@H]2OC(C)=O ... 87.4
COC(=O)[C@H]1O[C@@H](O[C@H]2CC[C@]3(C)[C@H]4CC=C5[C@@H]6CC(C)(C)C[C@H](OC(C)=O)[C@]6(COC(C)=O)[C@@H](OC(C)=O)C[C@@]5(C)[C@]4(C)CC[C@H]3C2(C)C)[C@H](O[C@@H]2O[C@H](CO)[C@@H](O)[C@H](O)[C@H]2O)[C@@H](O[C@@H]2O[C@@H](C)[C@H](O)[C@@H](O)[C@H]2O)[C@@H]1O ... 79.2
CC(=O)OC[C@]12[C@@H](OC(C)=O)CC(C)(C)C[C@H]1C1=CC[C@@H]3[C@@]4(C)CC[C@H](O[C@@H]5O[C@H](C(=O)O)[C@@H](O)[C@H](O)[C@H]5O[C@@H]5O[C@H](CO)[C@@H](O)[C@H](O)[C@H]5O[C@@H]5OC[C@@H](O)[C@H](O)[C@H]5O)C(C)(C)[C@@H]4CC[C@@]3(C)[C@]1(C)C[C@@H]2OC(C)=O ... 83.7
